# Tested on: OVCAR-8 ovarian
# assay-summary: NCI tumour cell line growth inhibition, 48 h; in the data active = GI50 below about 0.43 µM; inactive = the rest
Respond using exactly one of the listed classes: active, inactive

Field: example entries. Status: answers known.
C/C=C(\C)C(=O)O[C@@H]1C=CC(=O)O[C@H]1CNC(=O)[C@H](C)O; inactive
CC1(C)CN(CCNc2nccc(-c3c(-c4cccc(O)c4)nc4sccn34)n2)S(=O)(=O)N1; active
Nc1nc(N)c(-c2ccc(Cl)c(Cl)c2)c(CP(Cl)(Cl)(Cl)Br)n1; inactive
O=C(c1ccc(Nc2nccc(NCCCCNc3ccnc4cc(Cl)ccc34)n2)cc1)N1CCCCC1; inactive
COc1ccc2c(c1)C(=O)c1c-2n(CCCCl)c(=O)c2cc(N)ccc12; inactive

query: Test call for this molecule, please: Cn1cc(-c2nc(-c3cn(C)c4ncccc34)cs2)c2ccccc21
result: inactive

query: Test call for this molecule, please: COc1ccc(-c2nnc(Nc3nc(O)c(C4=c5cc(Br)ccc5=NC4=O)s3)o2)cc1
result: inactive

query: Test call for this molecule, please: C=CCN1C(=O)[C@]2(SC1=S)[C@H](c1cccc(Cl)c1)CN(C)[C@]21C(=O)NC2C=CC(Cl)=C[C@H]21 (some centres undefined)
result: inactive

query: Test call for this molecule, please: CCCCC[C@H]1C/C=C2/C(=O)C(Cl)=C[C@@H]2C/C=C\CCCC(=O)O1
result: active

---

# System: NCI-H460 lung
# assay-summary: NCI tumour cell line growth inhibition, 48 h
observable: TGI

Below, 6 compounds whose answers are already recorded.
Cc1ccc2c(c1)C(O)(c1ccccc1)CCS2 (stereo not given); > 100 µM
C1=C\CCCCN2CC[C@H]3[C@H](CCCC/C=C\CCCN4C[C@@H](CCCCC/1)C[C@@H]3C4)C2; 18.1 µM
O=C1c2ccccc2C(=O)c2sc(Nc3ccc([N+](=O)[O-])cc3)nc21; 34.4 µM
O=c1[nH]c2ccccc2n1C1CCN(CCOc2ccccc2)CC1; > 100 µM
COc1cc2c(cc1OC)[C@H]1C(COC(=O)Nc3ccccc3)CN1CC2 (stereo not given in full); > 100 µM
N#CC1=C(c2ccccc2)OC2(N)OC(c3ccccc3)=C(C#N)C12C#N (stereo not given); > 100 µM

Here are 2 compounds. What values of TGI were reported for them?
1. COc1cccc(-c2nn(-c3ccccc3)cc2-c2ccnc(NCCCNS(=O)(=O)c3ccc(C(F)(F)F)cc3)c2)c1
2. CCCCNCCCCCNc1cc(OC)cc2cccnc12

result:
1. > 100 µM
2. > 100 µM

Here are 2 compounds. What values of TGI were reported for them?
1. N#CC(C#N)=C1CCC2C(=C(C#N)C#N)CCC12 (stereo not given)
2. C/C=C(\C)C(=O)O[C@@H]1C=CC(=O)O[C@H]1CNC(=O)[C@H](C)O

result:
> 100 µM
67.9 µM

---

Provide the reported TGI of each item.
# Test system: K-562 leukemia
# assay-summary: NCI tumour cell line growth inhibition, 48 h

O=c1[nH]c(=O)n(C2CC(O)C(COP(=O)(OCC(Cl)(Cl)Cl)OCC(Cl)(Cl)Cl)O2)cc1F (centres undefined); > 100 µM
O=c1[nH]c(=O)n(C2OC(CO)C(O)C2O)cc1F (centres undefined); > 100 µM
CC(C)(C)OC(=O)C1/C(=C/CBr)CN1C(=O)OC(C)(C)C (centres undefined); 7.54 µM
Nc1ncc2c(n1)-c1ccccc1OC2N1CCOCC1 (centres undefined); > 100 µM
COc1ccc(N[C@@H]2c3cc4c(cc3C(c3cc(OC)c(O)c(OC)c3)[C@H]3C(=O)OCC32)OCO4)cc1OC (some centres undefined); > 100 µM
O=C(NCCN(CCNC(=O)c1cccc(=O)n1O)CCNC(=O)c1cccc(=O)n1O)c1cccc(=O)n1O; > 100 µM

Here are 4 compounds. What values of TGI were reported for them?
1. c1ccc(COC[C@H]2C3OCC([C@H](OCc4ccccc4)[C@H]3OCc3ccccc3)N2Cc2ccccc2)cc1 (some centres undefined)
2. CC(C)CC1NC(=O)CCC(NC(=O)C(Cc2ccc(O)cc2)NC(=O)OCc2ccccc2)C(=O)NC(Cc2ccccc2)C(=O)NC(Cc2ccccc2)NC1=O (centres undefined)
3. CNC(=O)NCCN1N=C(C)/C(=C\c2ccccc2)CC1=O
4. CN1CCN(Cc2ccccc2)CC1CC#N (centres undefined)

result:
["> 83 µM", "> 100 µM", "> 100 µM", "> 100 µM"]

Here are 5 compounds. What values of TGI were reported for them?
1. C[C@H]1S[C@H](c2c(F)cccc2F)n2c1nc1ccccc12
2. O=C(O)CCC(NC(=O)c1ccc(CNc2nc3cc(C(F)(F)F)ccc3nc2C(=O)O)cc1)C(=O)O (centres undefined)
3. COc1ccc(C2=NN(C(=O)c3ccc(Cl)cc3)C(O)(c3cc(F)c(Cl)cc3Cl)C2)cc1 (centres undefined)
4. COC(=O)[C@@H]1[C@H]2CC[C@]3(C)[C@@H](OC(C)=O)CC[C@H]3[C@@H]2CC[C@H]1C(C)=O
5. Cc1cc(S(=O)(=O)NC2=NCC(C)(C)CN2)c(S)cc1Cl

result:
1. > 100 µM
2. > 100 µM
3. > 100 µM
4. > 100 µM
5. 80.5 µM

Here are 4 compounds. What values of TGI were reported for them?
1. N/C(=N/S(=O)(=O)c1cc(C(=O)Nc2ccc(F)cc2)c(Cl)cc1SCc1ccccc1)Nc1ccccc1O
2. CC[Si](CC)(CC)OC1[C@@H](O[Si](CC)(CC)CC)[C@@H](CNC(=O)NC)O[C@H]1n1cnc2c(NC(=O)Nc3ccccc3)ncnc21 (some centres undefined)
3. Oc1ccc(/C=N/NC(=S)Nc2cccnc2)nc1
4. COc1ccc2nc3ccccc3c(NCc3ccccc3)c2c1

result:
3.64 µM
> 100 µM
> 23.1 µM
11.5 µM

---

# System: EKVX NSCLC
# assay-summary: NCI tumour cell line growth inhibition, 48 h
Provide the reported TGI of each item.

Below, 5 compounds whose answers are already recorded.
Cc1ccc2c(c1)CC1(C2)Cc2ccc(C)cc2C1=O (stereo unspecified); 88.7 µM
CCOC(=O)c1cc2c(n1Cc1cc(OC)cc(OC)c1)-c1oncc1CC2; > 100 µM
Cn1c(=O)[nH]c2c(c1=O)C(=O)CN2; > 100 µM
c1ccc2c(c1)[nH]c1c3ccccc3sc21; > 100 µM
COC1C(=O)N(SC)C1c1ccccc1Cl (stereo unspecified); 64.6 µM

Here are 2 compounds. What values of TGI were reported for them?
1. O=C1C2C3C=C4c5ccccc5N(c5ccccc5)C4([C@@H]2C(=O)N1c1ccc(F)cc1)[C@H]1C(=O)N(c2ccc(F)cc2)C(=O)[C@@H]31 (stereo partly specified)
2. O=S(=O)(CF)OCCCCOS(=O)(=O)CF

result:
1: > 100 µM; 2: > 100 µM

---

# System: EKVX NSCLC
# assay-summary: NCI tumour cell line growth inhibition, 48 h
Provide the reported TGI of each item.

Below, 5 molecules whose answers are already recorded.
CC(=O)/C=C/c1ccc(N(CCO)Cc2ccc(C(C)(C)C)cc2)cc1; 162 µM
O=C(Nc1cc2cc([N+](=O)[O-])ccc2oc1=O)c1cccs1; > 100 µM
N#CC(C#N)=Cn1c(=S)[nH]c2ccc([N+](=O)[O-])cc21; > 100 µM
CCC(=C(c1ccc(OCCN2CCCC2)cc1)c1ccc(OCCN2CCCC2)cc1)c1ccc(Cl)cc1; 1.4 µM
C=CCC1C(=O)CC2(C)C(CC=C)C(=O)CC12C (configuration not stated); > 100 µM

Here are 6 molecules. What values of TGI were reported for them?
1. N[C@H]1CCN(c2c(F)cc3c(=O)c(C(=O)O)cn4c3c2Oc2c-4ccc3c2ccc2ccccc23)C1
2. CC(=O)OCC1=CC2CCC3C(C)(CCC[C@]3(C)COC(C)=O)C23CC[C@H]1C3 (some centres not stated)
3. CC[P+]1(c2ccccc2)CCCCC1
4. COC(=O)[C@@H]1[C@H]2CC[C@]3(C)[C@@H](OC(C)=O)CC[C@H]3[C@@H]2CC[C@H]1C(C)=O
5. CCCC(C(=O)Nc1cccc2[nH]cnc12)C(=O)OCC (configuration not stated)
6. O=C(O)CCSC(=O)Nc1ccccc1

result:
["> 24.7 µM", "> 100 µM", "> 100 µM", "> 100 µM", "> 100 µM", "> 100 µM"]

Here are 2 molecules. What values of TGI were reported for them?
1. C=C1C(=O)O[C@H]2[C@H]1CC/C(COC(=O)N[C@H](Cc1c[nH]c3ccccc13)C(=O)OC)=C\CC[C@@]1(C)O[C@@H]21
2. N#CCCN(CCC#N)c1ccc(/C=C(/NC(=O)Nc2ccccc2Cl)NC(=O)c2cc([N+](=O)[O-])ccc2Cl)cc1

result:
["5.66 µM", "> 100 µM"]
